- System: spring wheat, TRZAS Triso
- testDetails: Safener seed treatment, post-emergence herbicide application, crop damage
- Format: in vivo
- setupConditions: 21 DAT; HER dose 32 g a.i./ha; cloquintocet-mexyl 0, 5 g a.i./kg seed
endpoint: HER effect + SAF [%] (%)

C=CC1(C(=O)NC2C=CC(C(=O)O)C2)CC(c2cc(F)cc(F)c2)=NO1 (centres unmarked) :: 20
COC(=O)C1CC(NC(=O)C2(OC)CC(c3cc(F)cc(F)c3)=NO2)CO1 (mixture of isomers) :: 10
COC(=O)C1COCC1NC(=O)C1(C)CC(c2cc(F)cc(F)c2)=NO1 (mixture of isomers) :: 10
C=CC1(C(=O)NC2CC=C(C(=O)OC)C2)CC(c2cc(F)cc(F)c2)=NO1 (mixture of isomers) :: 10
COCCOC(=O)C1C=CC(NC(=O)C2(C)CC(c3cc(Cl)cc(C#N)c3)=NO2)C1 (centres unmarked) :: 30
